assay: Phase 1 drug–drug interaction study: plasma PK of quizartinib, AC886 and quizartinib + AC886 after a single 30-mg quizartinib tablet alone or with lansoprazole; type: in vivo, human; details: human, plasma, oral, 30 mg, quizartinib in plasma; quizartinib alone, n = 30; read-out: AUCinf, geometric LS mean (ANOVA)
readout kind: AUC(0-inf) (ng·h/mL)
Form entry: value (ng·h/mL) — number only.

Form: molecule = CC(C)(C)c1cc(NC(=O)Nc2ccc(-c3cn4c(n3)sc3cc(OCCN5CCOCC5)ccc34)cc2)no1 ; AUC(0-inf) = 8660

---

Assay: Phase 1 drug–drug interaction study: plasma PK of quizartinib, AC886 and quizartinib + AC886 after a single 30-mg quizartinib tablet alone or with lansoprazole
Format: in vivo, human
Settings: human, plasma, oral; read-out: Median Tmax (min, max)
Protocol: The tolerability and safety of quizartinib administered alone and in combination with lansoprazole were also assessed. The study was conducted in compliance with the Declaration of Helsinki and the International Conference on Harmonisation (ICH)/Good Clinical Practice as well as all applicable state, local, and federal regulations. […] Plasma concentrations were determined by BASi (West Lafayette, IN, USA) using a validated analytical method. […]
readout kind: Tmax (h)
Form entry: value (h) — number only.

Form: compound = CC(C)(C)c1cc(NC(=O)Nc2ccc(-c3cn4c(n3)sc3cc(OCCN5CCOCC5)ccc34)cc2)no1 ; Tmax = 3.5

---

experiment: Phase 1 drug–drug interaction study: plasma PK of quizartinib, AC886 and quizartinib + AC886 after a single 30-mg quizartinib tablet alone or with lansoprazole; assay type: in vivo, human; conditions: human, plasma, oral, quizartinib in plasma; lansoprazole 60 mg once daily + single 30-mg quizartinib, n = 32; read-out: AUClast (CV%), geometric mean
readout kind: AUC(0-t) (ng·h/mL)
Form entry: value (ng·h/mL) — number only.

Form: compound = CC(C)(C)c1cc(NC(=O)Nc2ccc(-c3cn4c(n3)sc3cc(OCCN5CCOCC5)ccc34)cc2)no1 [Quizartinib, quizartinib] ; AUC(0-t) = 7830

---

assay: Phase 1 drug–drug interaction study: plasma PK of quizartinib, AC886 and quizartinib + AC886 after a single 30-mg quizartinib tablet alone or with lansoprazole; format: in vivo, human; settings: human, plasma, oral, 30 mg, quizartinib in plasma; single 30-mg quizartinib alone, n = 30; read-out: AUCinf (CV%), geometric mean
readout kind: AUC(0-inf)

Form: molecule = CC(C)(C)c1cc(NC(=O)Nc2ccc(-c3cn4c(n3)sc3cc(OCCN5CCOCC5)ccc34)cc2)no1 ; AUC(0-inf) = 8660 ng·h/mL

---

assay: Phase 1 drug–drug interaction study: plasma PK of quizartinib, AC886 and quizartinib + AC886 after a single 30-mg quizartinib tablet alone or with lansoprazole; format: in vivo, human; conditions: human, plasma, oral, quizartinib in plasma; lansoprazole + quizartinib, n = 31; read-out: AUCinf, geometric LS mean (ANOVA)
readout kind: AUC(0-inf) (ng·h/mL)
Form entry: value (ng·h/mL) — number only.

Form: compound = CC(C)(C)c1cc(NC(=O)Nc2ccc(-c3cn4c(n3)sc3cc(OCCN5CCOCC5)ccc34)cc2)no1 ; AUC(0-inf) = 8260

---

test: Phase 1 drug–drug interaction study: plasma PK of quizartinib, AC886 and quizartinib + AC886 after a single 30-mg quizartinib tablet alone or with lansoprazole; format: in vivo, human; details: human, plasma, oral; read-out: Vz/F (CV%), geometric mean
readout kind: Vd/F (L)
Form entry: value (L) — number only.

Form: molecule = CC(C)(C)c1cc(NC(=O)Nc2ccc(-c3cn4c(n3)sc3cc(OCCN5CCOCC5)ccc34)cc2)no1 [Quizartinib, quizartinib] ; Vd/F = 479
